Listed next: entries and their corresponding half-life.
test: Compound was evaluated for plasma half life in rat; assay type: ADME, organism-based

| SMILES_DATA | UNITS | half-life |
| --- | --- | --- |
| CCCCc1nn(CCCC)c(C(=O)O)c1Cc1ccc(-c2ccccc2-c2nn[nH]n2)cc1 | h | 14.8 |
| CCCCc1nn(CC2CC2)c(C(=O)O)c1Cc1ccc(-c2ccccc2-c2nn[nH]n2)cc1 | h | 12.3 |

###

# clearance per record follows
test: Compound was evaluated for plasma clearance in rat; assay type: ADME, organism-based; settings: read-out: Clp
READOUT_NAME: clearance (mL/min/kg)

| SMILES_DATA | RESULT |
| --- | --- |
| CCCCc1nn(CCCC)c(C(=O)O)c1Cc1ccc(-c2ccccc2-c2nn[nH]n2)cc1 | 0.12 |
| CCCCc1nn(CC2CC2)c(C(=O)O)c1Cc1ccc(-c2ccccc2-c2nn[nH]n2)cc1 | 0.2 |

The reported measurements were obtained from ChEMBL document CHEMBL1127865.
